# protocol description: in vivo
# condition notes: male, Sprague Dawley, rat, in vivo, 5-FU concentration in liver tissue, RF ablated liver, between 6 and 18 mm away from the ablation center
parameter measured: concentration at 24 h

The molecule identified as O=c1[nH]cc(F)c(=O)[nH]1 [5-FU, 5-fluorouracil] registered its concentration at 24 h at ~12000 ng/g
